Test system: HCC-366
Assay: relative viability (nuclei count vs DMSO), 5 days (fraction); higher = more cells survive
Conditions: first compound 1 µM
observation type: relative viability

>>> endpoint_result("CCN(CC)CCCCNc1ncc2cc(-c3cc(OC)cc(OC)c3)c(NC(=O)NC(C)(C)C)nc2n1 + Cc1nc(Nc2ncc(C(=O)Nc3c(C)cccc3Cl)s2)cc(N2CCN(CCO)CC2)n1 [Dasatinib] (partner 0.075 µM)")
0.613

Please examine the following record next.
Report relative viability for CCN(CC)CCCCNc1ncc2cc(-c3cc(OC)cc(OC)c3)c(NC(=O)NC(C)(C)C)nc2n1 + Cc1nc(NC(=O)N2CCC[C@H]2C(N)=O)sc1-c1ccnc(C(C)(C)C(F)(F)F)c1 [Alpelisib] (partner 2 µM) please.
0.47

###

Test system: LC-2-ad
Test: relative viability (nuclei count vs DMSO), 5 days (fraction); higher = more cells survive
Details: first compound 2.53 µM
observation type: relative viability
A bare number is all that is needed in reply.

Previously resolved entries follow.
>>> endpoint_result("COc1nc(C)cnc1NS(=O)(=O)c1cccnc1-c1ccc(-c2nnco2)cc1 [Zibotentan] + COc1cc2c(Oc3ccc(NC(=O)C4(C(=O)Nc5ccc(F)cc5)CC4)cc3F)ccnc2cc1OCCCN1CCOCC1 [Foretinib] (partner 0.25 µM)")
0.954
>>> endpoint_result("COc1nc(C)cnc1NS(=O)(=O)c1cccnc1-c1ccc(-c2nnco2)cc1 [Zibotentan] + CC1(C)CCC(c2ccc(Cl)cc2)=C(CN2CCN(c3ccc(C(=O)NS(=O)(=O)c4ccc(N[C@H](CCN5CCOCC5)CSc5ccccc5)c(S(=O)(=O)C(F)(F)F)c4)cc3)CC2)C1 [Navitoclax] (partner 0.5 µM)")
0.516
>>> endpoint_result("COc1nc(C)cnc1NS(=O)(=O)c1cccnc1-c1ccc(-c2nnco2)cc1 [Zibotentan] + CC(C)C[C@H](NC(=O)[C@H](Cc1ccccc1)NC(=O)c1cnccn1)B(O)O [Bortezomib] (partner 0.002 µM)")
1.07
>>> endpoint_result("O=c1cc(-c2cccc3c2Sc2ccccc2S3)oc(N2CCOCC2)c1 + O=C(c1cc(Cc2n[nH]c(=O)c3ccccc23)ccc1F)N1CCN(C(=O)C2CC2)CC1 [Olaparib] (partner 8 µM)")
0.649

Suppose we examine the molecule COc1nc(C)cnc1NS(=O)(=O)c1cccnc1-c1ccc(-c2nnco2)cc1 [Zibotentan] + C[C@@H](Oc1cc(-c2cnn(C3CCNCC3)c2)cnc1N)c1c(Cl)ccc(F)c1Cl [Crizotinib] (partner 1 µM) ; what relative viability value has been reported?
0.469

###

Tested on: NCI-H2342
Assay: relative viability (nuclei count vs DMSO), 5 days (fraction); higher = more cells survive
Settings: first compound 0.3162 µM
observation type: relative viability
Note: the reply should be a number with no unit written.

>>> endpoint_result("CCN(CC)CCCCNc1ncc2cc(-c3cc(OC)cc(OC)c3)c(NC(=O)NC(C)(C)C)nc2n1 + COc1cc2c(Oc3ccc(NC(=O)C4(C(=O)Nc5ccc(F)cc5)CC4)cc3F)ccnc2cc1OCCCN1CCOCC1 [Foretinib] (partner 0.25 µM)")
1.03

I am curious: what relative viability value has been reported for O=c1cc(N2CCOCC2)oc2c(-c3cccc4c3sc3ccccc34)cccc12 + Nc1nc2[nH]cc(CCc3ccc(C(=O)N[C@@H](CCC(=O)O)C(=O)O)cc3)c2c(=O)[nH]1 [Pemetrexed] (partner 0.2 µM) ?
0.755

I have this compound here, CCN(CC)CCCCNc1ncc2cc(-c3cc(OC)cc(OC)c3)c(NC(=O)NC(C)(C)C)nc2n1 + O=C(c1cc(Cc2n[nH]c(=O)c3ccccc23)ccc1F)N1CCN(C(=O)C2CC2)CC1 [Olaparib] (partner 8 µM) , and I need its recorded relative viability.
0.509
